- Tested On: huTAC3R (NK3R) (Homo sapiens)
- Construct: host or cells: COS-7
- Sequence (P29371 1-465): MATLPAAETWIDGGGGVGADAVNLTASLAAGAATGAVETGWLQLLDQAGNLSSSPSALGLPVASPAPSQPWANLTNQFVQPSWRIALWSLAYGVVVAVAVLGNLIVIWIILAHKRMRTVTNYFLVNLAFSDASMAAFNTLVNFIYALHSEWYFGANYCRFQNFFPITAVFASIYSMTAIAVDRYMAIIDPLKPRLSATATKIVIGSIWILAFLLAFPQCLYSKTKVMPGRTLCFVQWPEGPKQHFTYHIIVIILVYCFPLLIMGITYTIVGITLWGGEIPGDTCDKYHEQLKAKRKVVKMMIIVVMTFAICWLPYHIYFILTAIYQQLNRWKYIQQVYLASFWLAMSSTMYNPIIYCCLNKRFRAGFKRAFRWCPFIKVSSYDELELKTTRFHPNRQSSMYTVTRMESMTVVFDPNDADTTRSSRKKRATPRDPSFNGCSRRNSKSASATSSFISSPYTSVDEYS
- Assay Text: CRE-/SRE-Luc receptor transactivation reporter assay in COS-7 cells, human TAC3R
- Type: cell-based
- Test Conditions: SRE-Luc reporter (PKC/Ca2+), mean ± SEM, read-out: EC50 huTAC3R (NK3R) SRE
Starred links: 1 amine or outer side, 2 acyl side, 3 side chain; linkers in the order of their positions; H or OH if unused. Non-standard residues stand in square brackets, D forms with d. Residues, ends and D or L forms follow the SMILES beside them. Suc = O=C(CCC(=O)[*:2])[*:1]; NMeV = CN[C@H](C(=O)O)C(C)C
Property Label: EC50 (nM)
Give the value, in units of nM, as a plain number.

For orientation, consider the following solved cases.
- CC[C@H](C)[C@H](NC(=O)[C@H](CC(=O)O)NC(=O)[C@H](CC(N)=O)NC(=O)[C@@H](N)Cc1ccc(O)cc1)C(=O)N[C@@H](CC(=O)O)C(=O)N[C@@H](Cc1ccc(O)cc1)C(=O)N[C@@H](CC(=O)O)C(=O)N[C@@H](CO)C(=O)N[C@@H](Cc1ccccc1)C(=O)N[C@H](C(=O)NCC(=O)N[C@@H](CC(C)C)C(=O)N[C@@H](CCSC)C(N)=O)C(C)C [zfNKF] (H-YNDIDYDSFVGLM-NH2): 0.18
- CC[C@H](C)[C@H](NC(=O)[C@H](CC(=O)O)NC(=O)[C@H](Cc1c[nH]cn1)NC(=O)[C@H](CCSC)NC(=O)[C@@H](N)CCC(=O)O)C(=O)N[C@@H](Cc1ccccc1)C(=O)N[C@H](C(=O)NCC(=O)N[C@@H](CC(C)C)C(=O)N[C@@H](CCSC)C(N)=O)C(C)C [zfNKBa] (H-EMHDIFVGLM-NH2): 0.11
- CC[C@H](C)[C@H](NC(=O)[C@H](CC(=O)O)NC(=O)CCC(=O)O)C(=O)N[C@@H](Cc1ccccc1)C(=O)N(C)[C@H](C(=O)NCC(=O)N[C@@H](CC(C)C)C(=O)N[C@@H](CCSC)C(N)=O)C(C)C [zfNKBa analog] (Suc-DIF[NMeV]GLM-NH2): 0.03

Then this molecule:
What measured EC50 goes with `CSCC[C@H](NC(=O)[C@H](CC(C)C)NC(=O)CNC(=O)[C@H](C(C)C)N(C)C(=O)[C@H](Cc1ccccc1)NC(=O)[C@H](CO)NC(=O)[C@H](CC(=O)O)NC(=O)CCC(=O)O)C(N)=O` ?
43.2
